# testedSystem: Akt1 (Homo sapiens, UniProt P31749)
# Construct: unspecified tag, removed (detagged) (cleaved yes); purchased SignalChem and Proteros (Akt1); Merck Millipore (PDK1) 14-452 (PDK1); none given for Akt1
# Sequence (P31749 whole entry): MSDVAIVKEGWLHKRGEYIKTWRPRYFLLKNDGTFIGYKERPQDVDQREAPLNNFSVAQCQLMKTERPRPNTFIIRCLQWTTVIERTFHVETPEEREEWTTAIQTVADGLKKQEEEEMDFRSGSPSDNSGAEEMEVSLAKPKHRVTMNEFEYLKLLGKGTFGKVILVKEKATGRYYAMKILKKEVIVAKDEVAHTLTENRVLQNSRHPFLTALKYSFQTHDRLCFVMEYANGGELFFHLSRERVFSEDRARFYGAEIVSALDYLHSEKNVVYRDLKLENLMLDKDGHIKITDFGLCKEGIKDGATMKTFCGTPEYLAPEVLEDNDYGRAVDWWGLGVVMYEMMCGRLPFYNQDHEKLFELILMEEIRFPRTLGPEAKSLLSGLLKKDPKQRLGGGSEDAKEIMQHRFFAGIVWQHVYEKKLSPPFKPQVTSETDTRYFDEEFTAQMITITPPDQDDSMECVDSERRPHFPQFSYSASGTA
# testDetails: Akt activation assay (PDK1-mediated activation, LANCE Ultra crosstide TR-FRET), Akt1
# Assay type: biochemical
# particulars: read-out: Biological Assay 1 IC50 (nM) Akt1
readoutName: IC50

[[record]]
compound = "COCCN(C)[C@H]1CC[C@H](CC(=O)Nc2cc(-c3ccccc3)c(-c3ccc([C@]4(N)C[C@](C)(O)C4)cc3)cn2)CC1 [Example 128]"
observedmeasurement = "> 18000 nM"


The compound CCC(=O)N(C)[C@H]1CC[C@H](CC(=O)Nc2cc(-c3ccsc3)c(-c3ccc(C4(N)CC4)c(F)c3)nn2)CC1 [Example A101] on Akt1 (Homo sapiens, UniProt P31749): IC50 was > 30000 nM

The compound CC(C)C(=O)N(C)[C@H]1CC[C@H](CC(=O)Nc2cnc(-c3ccc([C@]4(N)C[C@](C)(O)C4)cc3)c(-c3ccccc3)c2)CC1 [Example 99] on Akt1 (Homo sapiens, UniProt P31749): IC50 was 2400 nM

* * *

# testedSystem: Akt1 (Homo sapiens, UniProt P31749)
# Construct: unspecified tag, removed (detagged) (cleaved yes); purchased SignalChem and Proteros (Akt1); Merck Millipore (PDK1) 14-452 (PDK1); none given for Akt1
# testDetails: Akt activation assay (PDK1-mediated activation, LANCE Ultra crosstide TR-FRET), Akt1
# Type: biochemical
# particulars: read-out: Biological Assay 1 IC50 (nM) Akt1
readoutName: IC50

[[record]]
compound = "CC(=O)N(C)[C@H]1CC[C@H](CC(=O)Nc2cnc(-c3ccc(C(C)(C)N)c(F)c3)c(-c3ccccc3)c2)CC1 [Example 31]"
readoutname = "IC50"
observedmeasurement = "> 30000 nM"

[[record]]
compound = "CCC(=O)N(C)[C@H]1CC[C@H](CC(=O)Nc2cc(-c3ccsc3)c(-c3ccc([C@]4(N)C[C@](C)(O)C4)cc3)nn2)CC1 [Example 91]"
readoutname = "IC50"
observedmeasurement = "7000 nM"

[[record]]
compound = "NC1(c2ccc(-c3ncc(NC(=O)C[C@H]4CC[C@H](N5CCCCC5=O)CC4)cc3-c3ccsc3)cc2)CCC1 [Example A14]"
readoutname = "IC50"
observedmeasurement = "> 30000 nM"


For the next question, use this compound.
The compound CCC(=O)N(CC)[C@H]1CC[C@H](CC(=O)Nc2cc(-c3ccccc3)c(-c3ccc([C@]4(N)C[C@](C)(O)C4)cc3)cn2)CC1 [Example 115] on Akt1 (Homo sapiens, UniProt P31749): IC50 was > 30000 nM

* * *

# testedSystem: p-Akt2 in WM115 cells (Homo sapiens, UniProt P31751)
# Construct: SureFire assays to detect cellular p-Akt1, p-Akt2 and p-Akt3 levels in WM115 cells (Akt2/3) and LNCaP cells (Akt1); endogenous in cells; host or cells: WM115 (ECACC 91061232), insulin-stimulated
# Sequence (P31751 whole entry): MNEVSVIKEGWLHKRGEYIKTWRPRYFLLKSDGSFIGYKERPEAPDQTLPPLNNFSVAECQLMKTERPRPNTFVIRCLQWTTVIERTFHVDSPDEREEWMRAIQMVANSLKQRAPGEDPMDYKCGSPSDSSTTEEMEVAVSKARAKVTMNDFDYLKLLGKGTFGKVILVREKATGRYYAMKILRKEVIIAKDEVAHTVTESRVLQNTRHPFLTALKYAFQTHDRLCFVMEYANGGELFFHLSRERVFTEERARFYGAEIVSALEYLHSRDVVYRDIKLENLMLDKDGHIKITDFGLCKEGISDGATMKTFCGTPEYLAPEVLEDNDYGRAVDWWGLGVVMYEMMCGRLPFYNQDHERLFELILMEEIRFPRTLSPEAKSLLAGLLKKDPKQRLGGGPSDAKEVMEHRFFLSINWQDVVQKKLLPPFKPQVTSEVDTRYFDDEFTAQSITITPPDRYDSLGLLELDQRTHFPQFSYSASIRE
# testDetails: Phospho-Akt cellular SureFire assay, p-Akt2 in WM115 cells
# Format: cell-based
# particulars: insulin stimulated, read-out: Biological Assay 2 IC50 (nM) Akt2 WM115
readoutName: IC50 (nM)

[[record]]
compound = "CC(=O)N(C)[C@H]1CC[C@H](CC(=O)Nc2cc(-c3ccccc3)c(-c3ccc(C4(N)CC(F)(F)C4)cc3)nn2)CC1"
testedsystem = "p-Akt2 in WM115 cells (Homo sapiens, UniProt P31751)"
observedmeasurement = 12000

[[record]]
compound = "CC(=O)N(C)[C@H]1CC[C@H](CC(=O)Nc2cc(-c3ccccc3)c(-c3ccc([C@]4(N)C[C@](C)(O)C4)c(F)c3)cn2)CC1"
testedsystem = "p-Akt2 in WM115 cells (Homo sapiens, UniProt P31751)"
observedmeasurement = 3200

[[record]]
compound = "CC(=O)N(C)[C@H]1CC[C@H](CC(=O)Nc2cc(-c3ccsc3)c(-c3ccc(C4(N)CCC4)cc3)nn2)CC1"
testedsystem = "p-Akt2 in WM115 cells (Homo sapiens, UniProt P31751)"
observedmeasurement = 3200

[[record]]
compound = "COC(=O)N[C@H]1CC[C@H](CC(=O)Nc2cc(-c3ccccc3)c(-c3ccc(C4(N)CC4)c(F)c3)cn2)CC1"
testedsystem = "p-Akt2 in WM115 cells (Homo sapiens, UniProt P31751)"
observedmeasurement = 23000

[[record]]
compound = "CC(=O)N(C)[C@H]1CC[C@H](CC(=O)Nc2cc(-c3ccccc3)c(-c3ccc(C4(N)CCC4)cc3)nn2)CC1"
testedsystem = "p-Akt2 in WM115 cells (Homo sapiens, UniProt P31751)"
observedmeasurement = 1300


I = COC(=O)N(C)[C@H]1CC[C@H](C(C)C(=O)Nc2cnc(-c3ccc(C4(N)CCC4)cc3)c(-c3ccccc3)c2)CC1 (relative stereo)
II = CCC(=O)N(C(C)C)[C@H]1CC[C@H](CC(=O)Nc2cc(-c3ccccc3)c(-c3ccc([C@]4(N)C[C@](C)(O)C4)cc3)cn2)CC1
[in] Short answer wanted: higher IC50, I or II ? Bench note: the answer is the label of the chosen record.
[out] I

P = CC(C)C(=O)N(C)[C@H]1CC[C@H](CC(=O)Nc2cc(-c3ccccc3)c(-c3ccc(C(C)(C)N)cc3)nn2)CC1
Q = NC1(c2ccc(-c3cnc(NC(=O)C[C@H]4CC[C@H](N5CCOC5=O)CC4)cc3-c3ccccc3F)cc2)CCC1
[in] Short answer wanted: higher IC50, P or Q ? Bench note: the answer is the label of the chosen record.
[out] P
(P: 8800 nM, Q: 570 nM)

* * *

# testedSystem: Akt1 (Homo sapiens, UniProt P31749)
# Construct: unspecified tag, removed (detagged) (cleaved yes); purchased SignalChem and Proteros (Akt1); Merck Millipore (PDK1) 14-452 (PDK1); none given for Akt1
# testDetails: Akt activation assay (PDK1-mediated activation, LANCE Ultra crosstide TR-FRET), Akt1
# Type: biochemical
# particulars: read-out: Biological Assay 1 IC50 (nM) Akt1
readoutName: IC50

These recorded examples may help you get a feel for the data.
[[record]]
molecule = "CC(C)(C(=O)N[C@H]1CC[C@H](CC(=O)Nc2cnc(-c3ccc(C4(N)CCC4)cc3)c(-c3cccnc3)c2)CC1)C(F)(F)F"
testedsystem = "Akt1 (Homo sapiens, UniProt P31749)"
observedmeasurement = "> 30000 nM"

[[record]]
molecule = "NC1(c2ccc(-c3ncc(NC(=O)C[C@H]4CC[C@H](NC(=O)C(F)F)CC4)cc3-c3ccccc3)cc2)CCC1"
testedsystem = "Akt1 (Homo sapiens, UniProt P31749)"
observedmeasurement = "9400 nM"

[[record]]
molecule = "C[C@@H]1CC(CC(=O)Nc2cnc(-c3ccc(C4(N)COC4)cc3)c(-c3ccccc3)c2)C[C@H](C)O1 (stereo partly drawn)"
testedsystem = "Akt1 (Homo sapiens, UniProt P31749)"
observedmeasurement = "> 30000 nM"

[[record]]
molecule = "CCN(C(=O)OC)[C@H]1CC[C@H](CC(=O)Nc2cnc(-c3ccc([C@]4(N)C[C@](C)(O)C4)cc3)c(-c3ccccc3)c2)CC1"
testedsystem = "Akt1 (Homo sapiens, UniProt P31749)"
observedmeasurement = "8500 nM"

[[record]]
molecule = "CC(=O)N(C)[C@H]1CC[C@H](CC(=O)Nc2cc(-c3ccsc3)c(-c3ccc(C4(N)CCC4)cc3)cn2)CC1"
testedsystem = "Akt1 (Homo sapiens, UniProt P31749)"
observedmeasurement = "> 30000 nM"


For the next question, use this molecule.
Please fill in: IC50 reported for CCC(=O)N(C)[C@H]1CC[C@H](CC(=O)Nc2cnc(-c3ccc(C(C)(C)N)cc3)c(-c3ccccc3)c2)CC1 = > 30000 nM

* * *

# testedSystem: Akt2 (Homo sapiens)
# Construct: unspecified tag, removed (detagged) (cleaved yes); purchased SignalChem and Proteros (Akt2); Merck Millipore (PDK1) 14-452 (PDK1); none given for Akt2
# Sequence (P31751 whole entry): as the sequence (P31751 whole entry) above
# testDetails: Akt activation assay (PDK1-mediated activation, LANCE Ultra crosstide TR-FRET), Akt2
# Assay type: biochemical
# particulars: read-out: Biological Assay 1 IC50 (nM) Akt2
# Experimental: Biological Assay 1: Akt Activation Assay Addition of a Europium-labelled antibody specific to the phosphopeptide allows energy transfer from the Europium donor to the Ultra Ulight™ acceptor if close enough in proximity. […] 5 μL enzyme in 1×AB was incubated with 2.5 μL test compound. […] Plates read with the EnVision® Multilabel Plate Reader, excitation at 320 nm and emission at 665 nm and 615 nm. Compound IC50 was determined using a 4-parameter equation.
readoutName: IC50 (nM)

[[record]]
compound = "NC1(c2ccc(-c3cnc(NC(=O)C[C@H]4CC[C@H](N5CCCC5=O)CC4)cc3-c3ccccc3)cc2)CC1 [Example A83]"
readoutname = "IC50"
valueunits = "nM"
observedmeasurement = 500


a = CC(=O)N(C)[C@H]1CC[C@H](CC(=O)Nc2cc(-c3ccsc3)c(-c3ccc(C4(N)CCC4)cc3)cn2)CC1 [Example A64]
b = CC(C)(N)c1ccc(-c2ncc(NC(=O)C[C@H]3CC[C@H](C(=O)N4CCOCC4)CC3)cc2-c2ccccc2)cc1 [Example A46]
c = CC(=O)N(C)[C@H]1CC[C@H](CC(=O)Nc2cc(-c3ccccc3)c(-c3ccc(C4(N)CC4)cc3)nn2)CC1 [Example 72]
[in] Order the 3 compounds from highest to lowest IC50. Write the labels out in the order the request specifies.
[out] b, a, c
